TESTED SYSTEM: T1, human IL-18Rβ on cells (human, UniProt O95256 20-599)
T1 sequence: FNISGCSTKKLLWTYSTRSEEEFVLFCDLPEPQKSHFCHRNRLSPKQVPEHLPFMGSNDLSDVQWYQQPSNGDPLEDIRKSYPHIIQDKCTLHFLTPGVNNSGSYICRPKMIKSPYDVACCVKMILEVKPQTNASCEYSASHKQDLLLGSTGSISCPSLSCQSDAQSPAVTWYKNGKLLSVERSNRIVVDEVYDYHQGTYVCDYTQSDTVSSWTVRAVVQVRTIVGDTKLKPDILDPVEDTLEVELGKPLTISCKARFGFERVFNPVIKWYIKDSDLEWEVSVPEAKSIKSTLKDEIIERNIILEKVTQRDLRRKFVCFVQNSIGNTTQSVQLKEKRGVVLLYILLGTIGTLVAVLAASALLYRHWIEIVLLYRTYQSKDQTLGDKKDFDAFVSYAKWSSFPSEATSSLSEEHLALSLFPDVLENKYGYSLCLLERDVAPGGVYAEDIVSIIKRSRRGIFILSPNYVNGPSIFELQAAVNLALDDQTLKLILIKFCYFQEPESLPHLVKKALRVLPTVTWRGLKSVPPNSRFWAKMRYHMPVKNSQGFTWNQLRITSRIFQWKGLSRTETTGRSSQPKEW
TEST PROTOCOL: cell-based or functional assay
READOUT: Average IC50, LPS+IL-12 dependent IFNg production, human whole blood (nM)

binder="P20-V3 (antibody, human IgG1, kappa, V domains shown, Variant of P20) VH: QVQLQESGPGLVKPSETLSLTCTVSGGSINNYYWSWIRQPPGKGLEWIGYIFYSGTTNYNPSLKSRVTISVDTSKNQFSLKLSSVTAADTAVYYCARDVGIAARNSYYYVMDVWGQGTTVTVSS VL: AIQLTQSPSSLSASVGDRVTITCRASQGISSALAWYQQKPGKAPKFLIYGASSLESGVPSRFSGSGSGTDFTLTISSLQPEDFATYYCQQFNSYPITFGQGTRLEIKR" test_result=1.52
binder="P20-V1 (antibody, human IgG1, kappa, V domains shown, Variant of P20) VH: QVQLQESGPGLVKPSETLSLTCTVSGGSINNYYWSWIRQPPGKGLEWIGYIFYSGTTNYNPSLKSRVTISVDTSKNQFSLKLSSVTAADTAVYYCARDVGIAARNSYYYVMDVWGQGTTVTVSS VL: AIQLTQSPSSLSASVGDRVTITCRASQGISSALAWYQQKPGKAPKFLIYEASSLESGVPSRFSGSGSGTDFTLTISSLQPEDFATYYCQQFNSYPITFGQGTRLEIKR" test_result=1.04
binder="P21-V1 (antibody, human IgG1, kappa, V domains shown, Variant of P21) VH: QVQLQESGPGLVKPSETLSLTCTVSGGSISNYYWTWIRQPPGKGLEWIGYISDSGSTNYNPSLKSRVTISVDTSKNQFSLKLSSVTAADTAVYYCARETIVVRGFYFYVMDVWGQGTTVTVSS VL: AIQLTQSPSSLSASVGDRVTITCRASQGISSALAWYQQKPGKAPKLLIYEASNWESGVPSRFSGSGSGTDFTLTISSLQPEDFATYYCQQFNSYPWTFGQGTKVEIKR" test_result=1.23
